Source: ChEMBL document CHEMBL4513216

system: Plasmodium berghei; assay: Screen against P. berghei liver stage (PbLuc), transformed with Luciferase, at 2uM; format: functional, HepG2; conditions: tested at 2 uM
Hit rate of the full screen: of about 68,000 compounds, about 2,700 (4%) showed an effect of 50% or more. The sample holds strong results, similar compounds and a random draw of the others, so the mix is not that of the screen.
attributeMeasured: INHIBITION (%)
Give the quantity in %, number only.

- molecule: "Cc1cc(C)n(CC2CN(CC(=O)NCc3ccccn3)CCO2)n1 (stereo not given)"
  INHIBITION / %: -12.05
- molecule: "Cc1cc(C)n(CC2CCCN2C(=O)c2cccnc2N(C)C)n1 (stereo not given)"
  INHIBITION / %: 56.02
- molecule: "O=C(Nc1ccccc1)c1ccc2c(c1)C1(CCCCC1)CN2"
  INHIBITION / %: -9.98

For record Cn1ccnc(Sc2ccc(O)cc2)c1=O the listed INHIBITION is -31.15

molecule O=C(c1ccc2c(c1)COC2)N1CCC(Nc2cccnn2)CC1 , INHIBITION observed: 31.19

* * *

system: Plasmodium berghei; experiment: Screen against P. berghei liver stage (PbLuc), transformed with Luciferase, at 2uM; type: functional, HepG2; conditions: tested at 2 uM
Hit rate of the full screen: of about 68,000 compounds, about 2,700 (4%) showed an effect of 50% or more. Shown is part of a subset that was picked to be rich in strong results.
attributeMeasured: INHIBITION (%)
Write the number in % without appending the unit.

Consider the reported INHIBITION for these molecules:
- molecule: "Cc1cccc(N2CC3(COCCN(c4ccncn4)C3)OCC2=O)c1 (stereo unspecified)"
  uom: "%"
  INHIBITION: 7.33
- molecule: "COc1c(CNC(C)C(=O)NC2CCCC2)c(C)nn1C (stereo unspecified)"
  uom: "%"
  INHIBITION: 60.34
- molecule: "Cn1ncnc1CNc1ccccc1C(=O)NC(C)(C)C"
  uom: "%"
  INHIBITION: -38.42
- molecule: "O=C1CC(c2ccncc2)C2(CCN(Cc3ccc(F)cc3)CC2)N1 (stereo unspecified)"
  uom: "%"
  INHIBITION: 6.03
- molecule: "O=C(c1ccc[nH]1)N1CCOCC2(C1)CN(c1ccccc1)C(=O)CO2 (stereo unspecified)"
  uom: "%"
  INHIBITION: -15.09

INHIBITION measured on COc1c(CNCCC(=O)NC2CCCC2)c(C(C)C)nn1C = -5.09

Reported INHIBITION for CC(NCc1c(C(C)C)nn(C)c1N(C)C)C(=O)NC1CCCC1 (stereo unspecified) was 10.04

Entry Cc1nc(CN2CCC3(CC2)NC(=O)CC3c2ccccc2)cs1 (stereo unspecified) — recorded INHIBITION = 44.43

So, Cc1ccsc1C(O)CNC(=O)Cc1ccc(F)cc1 (stereo unspecified) ? Its INHIBITION was 33.35

response.value for CN(C)CC(=O)N1CCOCC2(C1)CN(c1ccccc1)C(=O)CO2 (stereo unspecified) (field: INHIBITION) = 17.78

INHIBITION reported for this molecule O=C1CC(c2ccncc2)C2(CCN(Cc3cccnc3)CC2)N1 (stereo unspecified) : -4.26

* * *

Some compounds, each annotated with its measured INHIBITION.
system: Plasmodium berghei; experiment: Screen against P. berghei liver stage (PbLuc), transformed with Luciferase, at 2uM; type: functional, HepG2; details: tested at 2 uM
The campaign covered roughly 68,000 compounds. About 2,700 (4%) showed an effect of 50% or more. Many of the other results were omitted from the sample, so strong results are more common in it than they were.
Please respond with the number in % and leave the unit unwritten.

Record excerpt, results attached:
- compound: "C[C@@H]1CN(C(=O)c2cnc(C3CC3)nc2)CC[C@@]1(O)C1CCOCC1"
  INHIBITION [%]: 11.63
- compound: "O=C([C@H]1COC[C@H]2CN(C3CCCC3)C[C@H]21)N1CCCO1"
  INHIBITION [%]: 0.13
- compound: "Cc1cc(NC(=O)NCc2ccccn2)n(C)n1"
  INHIBITION [%]: 29.11
- compound: "N#Cc1cccnc1N1CCCN(C(=O)CCn2cccn2)CC1"
  INHIBITION [%]: 41.76
- compound: "CN1CCN(C(=O)CCc2cc(Br)cs2)CC1"
  INHIBITION [%]: 72.05
- compound: "COCCN(C)C(=O)c1ccc2onc(-c3coc(C)n3)c2c1"
  INHIBITION [%]: 32.04

Field INHIBITION (entry Cc1ccc(CN2CCOC3(CCN(C(=O)C4CCOC4)CC3)C2)cc1 (centres undefined) ) reads 69.37

Lookup result for CCc1ccccc1OCC(=O)N1CCOCC1c1ncon1 (centres undefined) ; measured INHIBITION: 53.58

For record CC(C(=O)NC1CCN(C)CC1)n1nc(C(F)(F)F)c(Cl)c1C1CC1 (centres undefined) the listed INHIBITION is -4.77

Form: compound = COc1ccc(OC2CCN(C(=O)c3ccc(C)[nH]c3=O)CC2)cc1 ; INHIBITION = 11.95

INHIBITION measured on CCOCC(=O)NCCC(O)c1ccoc1 (centres undefined) = 1.3

Entry O=S(=O)(CCc1ccccc1)Nc1cc(Cl)ccn1 ; INHIBITION = 0.51

Summary for this compound, O=C(COc1cccc(Cl)c1)N1CCOCC1c1ncon1 (centres undefined) : INHIBITION is -6.71

Record summary for O=C(CSC1CCCC1)N1CCN(c2ccc(-n3cncn3)nn2)CC1 : reported INHIBITION = 15.96

Please fill in: INHIBITION reported for Cc1c(CN2CC[C@@H](N3CCC(O)CC3)[C@H](O)C2)[nH]c2ccc(Cl)cc12 = -31.36

* * *

system: Plasmodium berghei; assay: Screen against P. berghei liver stage (PbLuc), transformed with Luciferase, at 2uM; assay type: functional, HepG2; settings: tested at 2 uM
The whole screen tested about 68,000 compounds, of which about 2,700 (4%) showed an effect of 50% or more. The full list was thinned out, with strong results kept by preference.
One threshold, 20%, splits the recorded INHIBITION values: lower ones are True, equal or higher ones are False.

Req: hey, is INHIBITION for CC(=O)Nc1cc(C2CC2)nn1-c1nc(C)c(C)c(=O)[nH]1 lower than 20% or not?
Resp: True

Req: INHIBITION under 20%? Item: Cc1nc(C(C)C)sc1C(=O)N1CCN(C2CCSCC2)CC1
Resp: True

Req: Take the molecule CNC(=O)CN1CCCC1c1ccccc1Br (stereo unspecified) and say whether its INHIBITION is less than 20%.
Resp: True

Req: Is INHIBITION strictly under 20% for the entry Cc1c(F)cccc1S(=O)(=O)NC(C)(C)CN ?
Resp: False

Req: Please indicate whether the reported INHIBITION of Cc1ccc(-c2noc(CN3CCOC(CN(C)C)C3)n2)cc1F (stereo unspecified) is strictly below 20%.
Resp: True

Req: Say whether its INHIBITION is strictly beneath 20%. Entry: c1csc(COC[C@H]2CCC[C@]23CN(Cc2ccoc2)CCO3)n1
Resp: False

Req: API: query returns whether the molecule falls strictly under 20% in INHIBITION. Query: O=S1(=O)CCN2C(=N1)Oc1ccc(Cl)cc12
Resp: False

* * *

tested on: Plasmodium berghei; experiment: Screen against P. berghei liver stage (PbLuc), transformed with Luciferase, at 2uM; assay type: functional, HepG2; conditions: tested at 2 uM
The whole screen tested about 68,000 compounds, of which about 2,700 (4%) showed an effect of 50% or more. The sample as a whole holds a higher share of strong results than the screen did.
# reported INHIBITION; entries follow
Write it as a number; the unit % goes unstated.

Some compounds with known INHIBITION results, for comparison:
- compound: "CCC(=O)N1CCCC(Cn2cc(-c3ccc(F)cc3)nn2)C1 (centres undefined)"
  INHIBITION [%]: -27.82
- compound: "Cc1nc(CN2C[C@@H]3CN(C(=O)c4cccn4C)C[C@@H]3C2=O)cs1"
  INHIBITION [%]: -32.67
- compound: "Fc1ccccc1-c1cccc(C2CCCN(C3CCOCC3)C2)n1 (centres undefined)"
  INHIBITION [%]: 25.4
- compound: "CS(=O)(=O)c1snnc1C1CCN(Cc2ccc3nccnc3c2)CC1"
  INHIBITION [%]: 28.67
- compound: "Cn1cc(N2CCN(c3ccc(C#N)c(Cl)c3)CC2=O)cn1"
  INHIBITION [%]: 52.3

Entry Cc1ccc(C)c(NS(=O)(=O)c2cc3c(c(C(=O)O)c2)OCCO3)c1 — recorded INHIBITION = -5.09

Reported INHIBITION for Cn1cc(N2CCN(c3ccc(C#N)cc3Br)CC2=O)cn1 was 42.2

Sample O=C(CCc1nc(Cl)n[nH]1)N1CCC2(CCCN(CC3CCC3)C2=O)C1 (centres undefined) ; INHIBITION observed: 57.34

Lookup result for CCc1nc(CN2CCCN(C(=O)c3cnc(C)cn3)CC2)cs1 ; measured INHIBITION: -12.19
